# system-tested: CSB wild-type (Homo sapiens, UniProt Q03468 1-1493)
# Sequence (Q03468 whole entry): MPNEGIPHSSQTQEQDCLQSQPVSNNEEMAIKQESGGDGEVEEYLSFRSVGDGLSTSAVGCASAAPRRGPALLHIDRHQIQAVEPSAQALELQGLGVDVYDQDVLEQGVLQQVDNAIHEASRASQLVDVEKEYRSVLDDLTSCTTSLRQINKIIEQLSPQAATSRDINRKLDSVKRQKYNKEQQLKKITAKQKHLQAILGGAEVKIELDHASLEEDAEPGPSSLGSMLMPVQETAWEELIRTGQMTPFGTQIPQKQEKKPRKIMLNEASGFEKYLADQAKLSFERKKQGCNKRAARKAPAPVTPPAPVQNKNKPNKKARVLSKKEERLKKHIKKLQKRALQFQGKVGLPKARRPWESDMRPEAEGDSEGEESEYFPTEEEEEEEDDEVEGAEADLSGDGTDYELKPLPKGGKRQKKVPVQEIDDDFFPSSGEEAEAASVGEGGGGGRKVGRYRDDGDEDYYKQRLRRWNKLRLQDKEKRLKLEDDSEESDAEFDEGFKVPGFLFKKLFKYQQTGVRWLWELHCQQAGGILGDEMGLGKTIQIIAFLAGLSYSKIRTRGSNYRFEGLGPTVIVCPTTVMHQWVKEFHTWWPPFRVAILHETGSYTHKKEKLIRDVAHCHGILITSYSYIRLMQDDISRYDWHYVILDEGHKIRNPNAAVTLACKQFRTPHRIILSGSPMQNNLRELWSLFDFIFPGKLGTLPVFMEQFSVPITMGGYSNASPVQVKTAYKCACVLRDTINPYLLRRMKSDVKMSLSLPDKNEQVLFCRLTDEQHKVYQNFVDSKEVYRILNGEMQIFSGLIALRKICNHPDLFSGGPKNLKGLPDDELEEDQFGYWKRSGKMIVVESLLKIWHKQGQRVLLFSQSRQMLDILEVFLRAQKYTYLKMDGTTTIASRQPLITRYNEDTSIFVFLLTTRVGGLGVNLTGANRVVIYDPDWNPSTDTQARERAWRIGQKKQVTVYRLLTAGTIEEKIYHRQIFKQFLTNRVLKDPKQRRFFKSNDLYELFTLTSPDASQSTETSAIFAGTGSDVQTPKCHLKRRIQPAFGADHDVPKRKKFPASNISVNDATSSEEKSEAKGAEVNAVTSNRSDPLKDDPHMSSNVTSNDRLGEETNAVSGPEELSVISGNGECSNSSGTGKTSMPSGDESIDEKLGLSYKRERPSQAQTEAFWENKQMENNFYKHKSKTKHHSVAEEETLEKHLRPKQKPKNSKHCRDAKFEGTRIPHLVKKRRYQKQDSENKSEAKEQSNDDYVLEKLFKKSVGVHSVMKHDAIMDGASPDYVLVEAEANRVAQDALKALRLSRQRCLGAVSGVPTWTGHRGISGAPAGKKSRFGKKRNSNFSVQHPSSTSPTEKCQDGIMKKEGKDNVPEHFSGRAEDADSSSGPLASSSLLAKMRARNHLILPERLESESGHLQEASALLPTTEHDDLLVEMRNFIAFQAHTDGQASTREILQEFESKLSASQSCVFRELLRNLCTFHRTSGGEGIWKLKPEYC
# experimental-protocol: EMSA
pKd: −log10 of the molar value.
observation-type: pKd

>>> df
                                     binder  numeric_value
0  34G/34C (dsDNA) DNA 1: GTACCCGGGGATCCGTACGGCGCATCAGCTGCAG DNA 2: CTGCAGCTGATGCGCCGTACGGATCCCCGGGTAC           7.86
